The measurements presented in this section are drawn from patent US20170326246A1.

target: gp120 of viral strain VI824 (HIV, strain VI824); assay: cell-based or functional assay
*1 amine or outer side, *2 acyl side, *3 side chain or, on linkers, in order; H or OH if unused. [ ]: non-standard residue; d: D form. U1 = 4-cyclohexylmethoxy-L-phenylalanine, O=C([C@H](Cc1ccc(OCC2CCCCC2)cc1)N[*:1])[*:2]; Tpa = thiopropionic acid
measured property: EC50 (antiviral activity, TZM-bl cells, luciferase) (nM)
Numeric only. Scale: nM

Look over these answered cases.
binder="mCD4.3-PS1 (not fully specified; N-terminal gamma-aminobutyric acid (gammaAbu) acylated with 3-thiopropionyl (from SATP); all six Tyr are sulfotyrosine (YSO3); N-terminal Tpa; D-proline at position 21; U1 (4-cyclohexylmethoxy-L-phenylalanine) at position 23; C-terminal amide; Lys5 N-epsilon carries the PEO2-maleimide linker bound to the thiol of the PS1 chain) peptide 1: NLHKCQLRCRSLGLLGRCAPTFCACV peptide 2: SYDYSYDYSYDYS" recorded_result=0.7
binder="Tpa-NLHKCQLRCSSLGLLGRCA[dP]T[U1]CACV-NH2 (disulfide (positions not given here)) [mCD4.2]" recorded_result=56

Here is another binder to look at.
Req: Which EC50 (antiviral activity, TZM-bl cells, luciferase) is listed for mCD4.1-PS1 (N-terminal gamma-aminobutyric acid (gammaAbu) acylated with 3-thiopropionyl (from SATP); all six Tyr are sulfotyrosine (YSO3); N-terminal Tpa (thiopropionic acid); Bip at position 23; C-terminal …; Lys5 N-epsilon carries the PEO2-maleimide linker bound to the thiol of the PS1 chain) peptide 1: NLHKCQLRCSSLGLLGRCAGSFCACV peptide 2: SYDYSYDYSYDYS ?
Resp: 40
